Biological target: T1, DriD(T61A-K62A) (Caulobacter crescentus, UniProt Q9A999 5-331, T65A;K66A)
T1 sequence: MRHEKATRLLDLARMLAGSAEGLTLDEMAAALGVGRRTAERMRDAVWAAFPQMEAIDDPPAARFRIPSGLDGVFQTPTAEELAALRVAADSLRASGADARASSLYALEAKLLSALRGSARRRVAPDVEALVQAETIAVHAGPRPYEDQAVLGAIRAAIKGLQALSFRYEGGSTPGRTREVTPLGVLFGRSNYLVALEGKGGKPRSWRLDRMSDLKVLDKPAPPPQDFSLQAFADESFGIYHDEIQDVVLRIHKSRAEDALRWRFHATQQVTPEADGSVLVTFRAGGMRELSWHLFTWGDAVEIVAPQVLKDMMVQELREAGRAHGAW
Assay: fluorescence polarization
Test readout: pKd
Conceptually, pKd converts a concentration in mol/L into minus its log10.

// sample driD promoter 21 bp site (FP) (dsDNA) DNA 1: ATACGACAGTTACTGTCGTAT DNA 2: ATACGACAGTAACTGTCGTAT , its pKd was 5.92
